- Assay System: human FLT3-ITD enzyme (Homo sapiens, UniProt P36888)
- Assay Comment: FLT3 enzyme inhibitory ability (ADP-Glo kinase assay)
- Condition Summary: human FLT3-ITD enzyme 10 ng, ATP 10 μM, 25° C. 1 hour
pIC50: −log10 of the molar value.
Measured Attribute: pIC50

- Compound: "CN(C)CCN(C)c1ccc(Nc2nc(N3N=CCC3c3ccccc3)c3sccc3n2)cc1 (stereo not shown) [Example 2]"
  Reported Value: "6.30 to 6.60"

Hey, human FLT3-ITD enzyme (Homo sapiens, UniProt P36888) data for COc1cc(Nc2nc(N3N=CCC3c3ccccc3)c3sccc3n2)ccc1N1CCC(N2CCN(C)CC2)CC1 (stereo not shown) [Example 8] : pIC50 came out at < 6.30

Hey, human FLT3-ITD enzyme (Homo sapiens, UniProt P36888) data for CCc1cc(Nc2nc(N3N=CCC3c3ccccc3)c3sccc3n2)cc(OCCN2CCC(O)CC2)c1 (stereo not shown) [Example 16] : pIC50 came out at < 6.30

Hey, human FLT3-ITD enzyme (Homo sapiens, UniProt P36888) data for CN1CCC(Oc2ccc(Nc3nc(N4N=CCC4c4ccccc4)c4sccc4n3)cc2)CC1 (stereo not shown) [Example 13] : pIC50 came out at < 6.30
